Value source: patent US6750228B1

Target: MMP-13 (Homo sapiens, UniProt P45452)
Construct: made in house; host or cells: baculovirus / insect cells
Assay: biochemical
Conditions: recombinant human MMP-13, MCA peptide substrate 4 μM, pH 7.5, room temperature; read-out: MMP-13 IC50
parameter: IC50 (nM)
Use nM as the unit, but write only the number.

IC50 lookup needed for COc1ccc(C(=O)N2CCN(c3ccc(S(=O)(=O)C4(C(=O)NO)CCOCC4)cc3)CC2)cc1 , thanks.
570

Would you mind doing CC1CN(c2ccc(S(=O)(=O)C3(C(=O)NO)CCOCC3)cc2)CCC1OCc1ccc(C(F)(F)F)cc1 (stereo not shown) as well?
70

Another compound: CC(C)N1CCC(C(=O)NO)(S(=O)(=O)c2ccc(OC(F)(F)F)cc2)CC1
1070

And what about the compound COc1ccccc1COC1CCC(Oc2ccc(S(=O)(=O)C3(C(=O)NO)CCOCC3)cc2)C1 (stereo not shown) [Example 741] ?
50

---

Molecular target: MMP-2 (Homo sapiens)
Construct: made in house; provided by Dr. Gregory Goldberg, Washington University
Assay: biochemical
Conditions: recombinant human MMP-2, MCA peptide substrate 4 μM, pH 7.5, room temperature; read-out: MMP-2 IC50
Where a name gives a salt, the structure may show the parent alone.
Kindly state pIC50 for each of the entries shown.
Note: pIC50 values are expressed as the negative base-10 logarithm of concentration in M.

What does the record list as pIC50 for COc1c(F)c(F)c(COC2CCN(c3ccc(S(=O)(=O)C4(C(=O)NO)CCOCC4)cc3)CC2)c(F)c1F ?
6.30

Proceed to O=C(NO)C1(S(=O)(=O)c2ccc(N3CCCN(c4ccc(OC(F)(F)F)cc4)CC3)cc2)CCOCC1
5.52

Next compound up: CN(C)Cc1ccc(COC2CCN(c3ccc(S(=O)(=O)C4(C(=O)NO)CCOCC4)cc3)CC2)cc1
7.24

Request: Cc1ccc(OC2CCN(c3ccc(S(=O)(=O)C4(C(=O)NO)CCOCC4)cc3)CC2)c([N+](=O)[O-])c1
6.85

Please do the same for CC(C)CCOCc1ccc(COC2CCN(c3ccc(S(=O)(=O)C4(C(=O)NO)CCOCC4)cc3)CC2)cc1 as well.
6.22

Do the same for COCCN1CCC(C(=O)NO)(S(=O)(=O)c2ccc(N3CCC(C(=O)NCc4ccccc4)CC3)cc2)CC1 [Example 247, Monohydrochloride] please
5.80

Repeat with Nc1ccc(OC2CCN(c3ccc(S(=O)(=O)C4(C(=O)NO)CCOCC4)cc3)CC2)cc1
7.30

Then what about the compound O=C(NO)C1(S(=O)(=O)c2ccc(Oc3cccnc3)cc2)CCSCC1 ?
7.86

Repeat for the following compound: N#Cc1ccc(COC2CCN(c3ccc(S(=O)(=O)C4(C(=O)NO)CCOCC4)cc3)CC2)cc1
7.38

Next compound: CCCCCC(=O)N1CCN(c2ccc(S(=O)(=O)C3(C(=O)NO)CCOCC3)cc2)CC1
6.16

Let us now turn to COc1ccc(S(=O)(=O)N2CCN(c3ccc(S(=O)(=O)C4(C(=O)NO)CCOCC4)cc3)CC2)cc1
7.30

How about Cc1cc(C)cc(C(=O)C2CCN(c3ccc(S(=O)(=O)C4(C(=O)NO)CCOCC4)cc3)CC2)c1 ?
5.52

Moving on to the next compound: COCCN1CCC(C(N)=O)(S(=O)(=O)c2ccc(Oc3ccc(OC(F)(F)F)cc3)cc2)CC1
8.07

Follow-up entry: O=C(CCCCN1CCCCC1)N1CCC(C(=O)NO)(S(=O)(=O)c2ccc(Oc3ccc(C(F)(F)F)cc3)cc2)CC1
9.52

Moving on to the next compound: O=C(NO)C1(S(=O)(=O)c2ccc(Oc3ccc(C(F)(F)F)cc3)cc2)CCN(c2ccccn2)CC1
9.30

---

Target: MMP-2 (Homo sapiens, UniProt P08253)
Construct: made in house; provided by Dr. Gregory Goldberg, Washington University
Sequence (P08253 110-660): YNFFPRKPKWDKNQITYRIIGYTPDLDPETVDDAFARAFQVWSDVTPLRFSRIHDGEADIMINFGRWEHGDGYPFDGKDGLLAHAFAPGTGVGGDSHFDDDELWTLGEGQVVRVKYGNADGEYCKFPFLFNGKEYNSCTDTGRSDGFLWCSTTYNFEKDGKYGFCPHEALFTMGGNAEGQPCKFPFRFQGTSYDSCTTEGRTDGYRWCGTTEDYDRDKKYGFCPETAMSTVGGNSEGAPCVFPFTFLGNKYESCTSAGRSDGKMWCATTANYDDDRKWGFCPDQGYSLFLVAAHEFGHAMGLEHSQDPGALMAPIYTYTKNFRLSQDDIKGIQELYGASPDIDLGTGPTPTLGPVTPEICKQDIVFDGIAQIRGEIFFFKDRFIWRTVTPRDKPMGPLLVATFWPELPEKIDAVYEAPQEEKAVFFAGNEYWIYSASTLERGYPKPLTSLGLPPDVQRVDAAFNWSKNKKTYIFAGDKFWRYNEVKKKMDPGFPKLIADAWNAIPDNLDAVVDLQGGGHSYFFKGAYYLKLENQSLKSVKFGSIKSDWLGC
Experiment: biochemical
Details: recombinant human MMP-2, MCA peptide substrate 4 μM, pH 7.5, room temperature; read-out: MMP-2 IC50
Structures can show the parent of a compound that is named as a salt.
For each entry below, report its IC50 value.
Give the quantity in nM, number only.

So what IC50 did O=C(NO)C1(S(=O)(=O)c2ccc(Oc3ccc(SC(F)(F)F)cc3)cc2)CCNCC1 [Example 231, Monohydrochloride] get with MMP-2 (Homo sapiens, UniProt P08253)?
0.1

Same lookup for Cc1ccc(C(=O)C2CCN(c3ccc(S(=O)(=O)C4(C(=O)NO)CCOCC4)cc3)CC2)cc1F , please.
145

Also O=C(NO)C1(S(=O)(=O)c2ccc(N3CCC(Oc4ccc(Cl)cc4F)CC3)cc2)CCOCC1 , if possible.
13.7

Next compound up: O=C(NO)C1(S(=O)(=O)c2ccc(N3CCC(OCc4ccccc4C(F)(F)F)CC3)cc2)CCOCC1
800

Same for CC(=N)N1CCC(C(=O)NO)(S(=O)(=O)c2ccc(Oc3ccc(OC(F)(F)F)cc3)cc2)CC1
0.2

Input O=C(NO)C1(S(=O)(=O)c2ccc(OC3CCC(OCc4ccccc4Cl)C3)cc2)CCOCC1 (centres unmarked) [Example 665]
29.2

Thanks! And COc1cc2c(cc1OC)CN(c1ccc(S(=O)(=O)C3(C(=O)NO)CCN(C4CC4)CC3)cc1)CC2 ?
400

Would you mind doing C[C@H](OC1CCN(c2ccc(S(=O)(=O)C3(C(=O)NO)CCN(C4CC4)CC3)cc2)CC1)c1ccccc1 as well?
520

// repeat for CCCCOC1CCN(c2ccc(S(=O)(=O)C3(C(=O)NO)CCN(C(=O)OC(C)(C)C)CC3)cc2)CC1 and report
211

Param item: O=C(NO)C1(S(=O)(=O)c2ccc(N3CCC(OCc4cccc(F)c4)CC3)cc2)CCOCC1
110

Input O=C(NO)C1(S(=O)(=O)c2ccc(OC3CCC(OCc4cccc(Cl)c4)C3)cc2)CCOCC1 (centres unmarked) [Example 669]
22.7

Same for O=C(Nc1ccncc1)C1CCN(c2ccc(S(=O)(=O)C3(C(=O)NO)CCOCC3)cc2)CC1
690

// next record O=C(NO)C1(S(=O)(=O)c2ccc(Oc3ccc(OC(F)(F)F)cc3)cc2)CCS(=O)(=O)CC1
0.2

Query CCNCc1ccc(COC2CCN(c3ccc(S(=O)(=O)C4(C(=O)NO)CCOCC4)cc3)CC2)cc1 next
140

Queued: O=C(NO)C1(S(=O)(=O)c2ccc(N3CCCN(S(=O)(=O)c4ccc(OC(F)(F)F)cc4)CC3)cc2)CCOCC1
455

Continue with O=C(NO)C1(S(=O)(=O)c2ccc(N3CCC(Sc4ccccc4)CC3)cc2)CCN(C2CC2)CC1
16.1

Same for O=C(NO)C1(S(=O)(=O)c2ccc(N3CCC(Oc4ccc([N+](=O)[O-])c(C(F)(F)F)c4)CC3)cc2)CCOCC1
87.7

Another compound: COc1cc(COC2CCN(c3ccc(S(=O)(=O)C4(C(=O)NO)CCOCC4)cc3)CC2)cc(OC)c1
325

Again, but for O=C(Nc1cccc(OC(F)(F)F)c1)C1CCN(c2ccc(S(=O)(=O)C3(C(=O)NO)CCOCC3)cc2)CC1
1800

Next compound: O=C(NO)C1(S(=O)(=O)c2ccc(OC3CCC(OCc4cccc(Cl)c4)C3)cc2)CCOCC1 (centres unmarked) [Example 668]
25.8

Subsequent entry: O=C(NO)C1(S(=O)(=O)c2ccc(N3CCC(c4cccc5ccccc45)CC3)cc2)CCOCC1
500

// same read-out, input: CC(=O)N1CCC(C(=O)NO)(S(=O)(=O)c2ccc(N3CCC(C(=O)Nc4ccccc4)CC3)cc2)CC1
800

Also C=Cc1ccc(C(=O)C2CCN(c3ccc(S(=O)(=O)C4(C(=O)NO)CCOCC4)cc3)CC2)cc1 ?
175

Repeat for the following compound: Cc1ccc(C(=O)C2CCN(c3ccc(S(=O)(=O)C4(C(=O)NO)CCOCC4)cc3)CC2)cc1C
1280
